- test details: Tmax in mouse at 10 mg/kg, po measured after 24 hrs by LC-MS/MS analysis
- Type: ADME, organism-based
- setup conditions: in vivo
reported metric: Tmax (min)

1: C=C(F)C(=O)N1CCc2ccc(-c3ccc(C(F)(F)F)cc3)cc2C1
2: C=CC(=O)N1CCc2ccc(-c3ccc(C(F)(F)F)cc3)cc2C1
### Prompt Parameter check: reported Tmax is higher for which label, 1 or 2 ? Use the label to indicate which entry you chose.
### Response 2
(2: 67.5 min, 1: 45 min)

* * *

- test details: Cmax in mouse at 10 mg/kg, po measured after 24 hrs by LC-MS/MS analysis
- Format: ADME, organism-based
- setup conditions: in vivo
reported metric: Cmax (ng/mL)

input smiles | Cmax / ng/mL
C=CC(=O)N1CCc2ccc(-c3ccc(C(F)(F)F)cc3)cc2C1 | 974
C=C(F)C(=O)N1CCc2ccc(-c3ccc(C(F)(F)F)cc3)cc2C1 | 1390

* * *

- test details: Metabolic stability in human liver microsomes assessed as parent compound remaining measured after 15 mins by LC-MS/MS analysis
- Assay type: ADME, Microsome
- setup conditions: read-out: Stability
reported metric: remaining at 0.25 h (%)

input smiles | unit info | remaining at 0.25 h
C=CC(=O)Nc1ccc(C)c(Oc2ccc(Cl)cc2)c1 | % | 77.6
C=CC(=O)N1CCc2ccc(-c3ccc(C(F)(F)F)cc3)cc2C1 | % | 95.9
C=C(F)C(=O)N1CCc2ccc(-c3ccc(C(F)(F)F)cc3)cc2C1 | % | 98.2

* * *

- test details: Metabolic stability in mouse liver microsomes assessed as parent compound remaining measured after 15 mins by LC-MS/MS analysis
- Format: ADME, Microsome
- setup conditions: read-out: Stability
reported metric: remaining at 0.25 h (%)

input smiles | remaining at 0.25 h [%]
C=CC(=O)N1CCc2ccc(-c3ccc(C(F)(F)F)cc3)cc2C1 | 75.9

I: C=C(F)C(=O)N1CCc2ccc(-c3ccc(C(F)(F)F)cc3)cc2C1
II: C=CC(=O)Nc1ccc(C)c(Oc2ccc(Cl)cc2)c1
### Prompt Which gives the smaller remaining at 0.25 h number: I or II ? Use the label to indicate which entry you chose.
### Response II

* * *

- test details: Metabolic stability in human liver microsomes assessed as parent compound remaining measured after 30 mins by LC-MS/MS analysis
- Assay type: ADME, Microsome
- setup conditions: read-out: Stability
reported metric: remaining at 0.5 h (%)

input smiles | unit info | quantitative readout
C=CC(=O)Nc1ccc(C)c(Oc2ccc(Cl)cc2)c1 | % | 63.5
C=C(F)C(=O)N1CCc2ccc(-c3ccc(C(F)(F)F)cc3)cc2C1 | % | 97.7
C=CC(=O)N1CCc2ccc(-c3ccc(C(F)(F)F)cc3)cc2C1 | % | 79.6

* * *

- test details: MRT in mouse at 10 mg/kg, po measured after 24 hrs by LC-MS/MS analysis
- Assay type: ADME, organism-based
- setup conditions: in vivo
reported metric: MRT (h)

input smiles | unit info | MRT
C=CC(=O)N1CCc2ccc(-c3ccc(C(F)(F)F)cc3)cc2C1 | h | 6.08
C=C(F)C(=O)N1CCc2ccc(-c3ccc(C(F)(F)F)cc3)cc2C1 | h | 7.5

* * *

- test details: AUClast in mouse at 10 mg/kg, po measured after 24 hrs by LC-MS/MS analysis
- Format: ADME, organism-based
- setup conditions: in vivo
reported metric: AUC(0-t) at 24 h (ng·h/mL)

input smiles | AUC(0-t) at 24 h, ng·h/mL
C=CC(=O)N1CCc2ccc(-c3ccc(C(F)(F)F)cc3)cc2C1 | 3810
C=C(F)C(=O)N1CCc2ccc(-c3ccc(C(F)(F)F)cc3)cc2C1 | 5410
